// data source = PubChem BioAssay (NCI)

procedure_text: NCI Yeast Anticancer Drug Screen. Data for the rad52 strain (AID 147);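 note: 0% = growth of vehicle-treated control cultures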
condition_set: S. cerevisiae rad52 mutant growth inhibition; at 3.7 µM; active compounds read high
The panel holds about 79,000 compounds, 15% with a hit somewhere; the sample as a whole holds those more often.

compound | growth inhibition / %
CCC1(O)C(=O)OCc2c1cc1n(c2=O)Cc2cc3c(N)cccc3nc2-1 (centres undefined) | 31
CCOc1ccc(N)c(S)c1 | 3
CC(=O)/C=C/c1cccc([N+](=O)[O-])c1 | 4
CC(C)(Br)C(=O)/C=C/c1ccccc1 | 21
COC(=O)c1ccccc1N=NNc1cccc(SC)c1 | 13
O=C1SS(=O)c2ccccc21 (centres undefined) | 6
CCOC(=O)C(Cc1c2ccccc2cc2ccccc12)(NC(C)=O)C(=O)OCC | -2
CC1(c2ccccc2)O[C@@H]2C[C@H]3[C@@H]4CCC5=CC(=O)C=C[C@]5(C)[C@@]4(F)[C@@H](O)C[C@]3(C)[C@]2(C(=O)CO)O1 (some centres undefined) | -2
CC(C)(CN1CCCCC1)C(=O)/C=C/c1c(Cl)cccc1Cl | 35
COc1ccc(C2CC(C)(N3CCCC3)Oc3cc4c(cc32)OCO4)cc1 (centres undefined) | 5
CCCCCCCCCC(=O)N(CCC)CCC | -15
C[n+]1c(/C=C/c2ccc(/C=N/NC(=O)c3ccc(C(=O)N/N=C/c4ccc(/C=C/c5cn6ccccc6[n+]5C)cc4)cc3)cc2)cn2ccccc21 | 97
CCC(=O)Nc1ccc(N=NN(C)C)cc1 | -12
COC(=O)C(Cl)(Cl)N=Nc1c(Cl)cc(Cl)c(C)c1Cl | 83
O=C1C(CCSc2ccccc2)C(=O)N(c2ccccc2)C1c1ccccc1 (centres undefined) | 24
CC(C)=CCC/C(C)=C/CN1C(=O)C=CC1=O | 36
CSC(=S)N/N=C/c1ccccc1 | 20
CO[C@@]1([C@@H](Cl)c2ccccc2)C(=O)N(C)/C(=C\c2ccccc2)C(=O)N1C | 1
Cc1cccc(/C=N/NC(=S)NC2CCCCC2)n1 | -9
O=C1Nc2ccc(Br)cc2C1=Nc1cccnc1 | -36
CC1=CC(=O)C=CC1=Nc1cc(Cl)c(O)c(Cl)c1 | -29
NC(CS)C(=O)NCCNc1ccc(NCCNC(=O)C(N)CS)c2c1C(=O)c1c(O)ccc(O)c1C2=O (centres undefined) | 58
Cc1ccc(C)c(C(=N)c2ccccc2Cc2ccccc2)c1 | 17
CC1=NN(C(=O)CC(=O)NC(=O)/C=C\c2ccccc2)C(=O)C1N=Nc1ccc([N+](=O)[O-])cc1 (centres undefined) | 3
COC(=O)C(=O)CC(=O)c1cccc(OC)c1 | -10
O=[N+]([O-])c1ccc2nc(=S)[nH]n2c1 | -2
[N-]=[N+]=NC1(c2ccccc2)C(=O)Nc2ccccc2C1=O (centres undefined) | 0
Clc1ccc(/C(=C\c2ccccc2)Cn2ccnc2)cc1 | 34
O=S(=O)(c1cccc(C(F)(F)F)c1)N1c2ccccc2-n2cccc2C1c1cccnc1 (centres undefined) | 7
CC1=CC(C)(C)SC(SSSC2=NC(C)=CC(C)(C)S2)=N1 | -3
CC(C)[Si]1(C(C)C)OCC2OC(n3cnc4c(N)ncnc43)C(N)C2O[Si](C(C)C)(C(C)C)O1 (centres undefined) | 9
Cc1ccccc1NC(=O)c1c(C)oc2c1C(=O)c1ccccc1C2=O | -6
CCCCCCCCCCCCCCCCCCNc1nc(=O)n(C2CC(OP(=O)(O)OCC3OC(n4cc(F)c(=O)[nH]c4=O)CC3O)C(CO)O2)cc1F (centres undefined) | 12
CC1=CN2C(c3ccccc3)=NON(c3ccc(C)cn3)C2C=C1 (centres undefined) | 4
Cc1cccc2c(NCCCN(C)C)c3c([N+](=O)[O-])ccc(C)c3nc12 | 91
Oc1ccc(C2(c3ccc(O)cc3)CCCC2)cc1 | -23
CC1(C)C(O)OC(O)C1(C)C (centres undefined) | 0
NC(=S)N/N=C1\c2ccccc2CCC1CCC1(O)CCc2ccccc2C1=O (centres undefined) | 47
CC1CN(/N=C\c2ccc([N+](=O)[O-])o2)C(=O)O1 (centres undefined) | 3
O=C(NNc1ccccc1)C(CCCCNS(=O)(=O)Cc1ccccc1)NS(=O)(=O)Cc1ccccc1 (centres undefined) | 9
NC(CCCCCCCCCCCCC(N)C(=O)c1ccccc1)C(=O)c1ccccc1 (centres undefined) | -4
CC1(C)CC(=O)C(C=NC(=S)C(N)=S)=C(O)C1 | -57
CCCCCCCCNCCCCCCCC | 18
NC(N)=NC(N)=Nc1ccccc1 (tested in a mixture with another compound) | -5
